Provide the recorded viscosity for the entries that follow.
Conditions: 298.2 K; 101.33 kPa; Liquid; rotary viscometer
Answers are plain numbers, in mPa·s.

Some compounds with known viscosity results, for comparison:
compound="CC(=O)[O-].[NH3+]CCO [2-hydroxyethylammonium acetate]" reading_unit=mPa·s reported_value=640
compound="NCCO.O=CO [2-hydroxyethylammonium formate]" reading_unit=mPa·s reported_value=118
compound="CC(O)C(=O)[O-].[NH3+]CCO (stereo not given) [2-hydroxyethylammonium lactate]" reading_unit=mPa·s reported_value=1200
compound="CC(=O)O.OCCN(CCO)CCO [triethanolammonium acetate]" reading_unit=mPa·s reported_value=342

Endpoint output: viscosity of CC(O)C(=O)O.OCCN(CCO)CCO [triethanolamine lactate] . Value? 455

* * *

Provide the recorded Normal melting temperature for the entries that follow.
Conditions: Crystal; DTA
Numbers after ± are expanded uncertainties.

Some compounds with known Normal melting temperature results, for comparison:
compound="CC(=O)O.OCCN(CCO)CCO [triethanolammonium acetate]" reported_value="-72.2 ± 0.5 °C"
compound="CC(=O)[O-].[NH3+]CCO [2-hydroxyethylammonium acetate]" reported_value="-70.9 ± 0.5 °C"
compound="O=CO.OCCN(CCO)CCO [triethanolamine formate]" reported_value="67.6 ± 0.5 °C"
compound="NCCO.O=CO [2-hydroxyethylammonium formate]" reported_value="-82.2 ± 0.5 °C"
compound="CC(O)C(=O)[O-].[NH3+]CCO (stereo unspecified) [2-hydroxyethylammonium lactate]" reported_value="-58.5 ± 0.5 °C"

Endpoint output: Normal melting temperature of CC(O)C(=O)O.OCCN(CCO)CCO [triethanolamine lactate] . Value? -54.8 ± 0.5 °C

* * *

Provide the recorded Glass transition temperature for the entries that follow.
Settings: Glass; DTA
One number for each entry, in °C.

Some compounds with known Glass transition temperature results, for comparison:
compound="NCCO.O=CO [2-hydroxyethylammonium formate]" reported_value=-85.9
compound="CC(O)C(=O)[O-].[NH3+]CCO (stereo not given) [2-hydroxyethylammonium lactate]" reported_value=-63.7

Answer for every listed entry: what is its Glass transition temperature? The entries follow.
1. CC(=O)[O-].[NH3+]CCO [2-hydroxyethylammonium acetate]
2. CC(=O)O.OCCN(CCO)CCO [triethanolammonium acetate]
3. CC(O)C(=O)O.OCCN(CCO)CCO [triethanolamine lactate]

[-75.8, -78.8, -59.4]

* * *

Provide the recorded mass density for the entries that follow.
Conditions: 298.2 K; 101.33 kPa; Liquid; Pycnometric method
± gives the expanded uncertainty stated by the source.

compound="NCCO.O=CO [2-hydroxyethylammonium formate]" reported_value="1204 ± 26 kg/m3"
compound="CC(=O)[O-].[NH3+]CCO [2-hydroxyethylammonium acetate]" reported_value="1120 ± 26 kg/m3"
compound="CC(=O)O.OCCN(CCO)CCO [triethanolammonium acetate]" reported_value="1120 ± 26 kg/m3"
compound="CC(O)C(=O)O.OCCN(CCO)CCO [triethanolamine lactate]" reported_value="1222 ± 26 kg/m3"

# next compound below
Endpoint output: mass density of CC(O)C(=O)[O-].[NH3+]CCO (stereo not given) [2-hydroxyethylammonium lactate] . Value? 1202 ± 26 kg/m3

* * *

Conditions: 298.2 K; 101.33 kPa; Liquid; Alternating current cell with electrodes
Quantity kind: electrical conductivity (S/m)
Numbers only, in S/m.

Some compounds with known electrical conductivity results, for comparison:
compound="NCCO.O=CO [2-hydroxyethylammonium formate]" reported_value=0.329
compound="CC(O)C(=O)O.OCCN(CCO)CCO [triethanolamine lactate]" reported_value=0.009
compound="CC(=O)O.OCCN(CCO)CCO [triethanolammonium acetate]" reported_value=0.0496
compound="CC(=O)[O-].[NH3+]CCO [2-hydroxyethylammonium acetate]" reported_value=0.0692

# next compound below
Endpoint output: electrical conductivity of CC(O)C(=O)[O-].[NH3+]CCO (stereo not given) [2-hydroxyethylammonium lactate] . Value? 0.0377
